tested on: T-47D breast; experiment: NCI tumour cell line growth inhibition, 48 h
endpoint: TGI

C/C(=N\NC(=O)c1ccncc1)c1ccccc1F : > 10 µM

Look up TGI for the entries below, preserving their order.
1. C=CCN1C(=O)/C(=C/c2ccc(C)cc2)NC1=S
2. Cc1sc2nc(-c3ccc([N+](=O)[O-])cc3)c(/C=N/N=C(N)N)n2c1C
3. COC(=O)[C@@H](NC(=O)N(CCC#N)CCCN(C(=O)N[C@H](Cc1ccccc1)C(=O)OC)c1ccccc1)C(C)C
4. Cc1ccc(C(=O)Nc2ccc(CP(=O)(O)O)cc2CP(=O)(O)O)cc1NC(=O)c1cccc(NC(=O)Nc2cccc(C(=O)Nc3cc(C(=O)Nc4ccc(CP(=O)(O)O)cc4CP(=O)(O)O)ccc3C)c2)c1

Result ::
> 100 µM
3.1 µM
> 100 µM
> 100 µM

Hi there! I need TGI for each item below, if you can.
1. Cn1c(Cl)cn2c3nc4ccccc4nc3c(=O)c(C#N)c12
2. CN(Cc1cccc2ccccc12)Cc1cccc2ccccc12
3. CC1=C(C(=O)N(C(C)C)C(C)C)CC(C(=O)N(C(C)C)C(C)C)=C(C)N1
4. COc1ccc(N2C(=O)C(C)SC2c2cc3cc(Br)ccc3nc2Cl)cc1 (centres undefined)

Result ::
["> 100 µM", "72.2 µM", "> 100 µM", "> 100 µM"]

----------
tested on: MDA-MB-435; assay: NCI tumour cell line growth inhibition, 48 h
Could you please report measured log10 TGI for the items listed next?
Remember, log10 of TGI, in µM.

Below are worked cases with known answers.
COc1cc(Cl)cc(-c2nn(-c3cccc(NC(=O)Nc4cc(C(F)(F)F)cc(C(F)(F)F)c4)c3)cc2-c2ccncc2)c1 : 0.42
N#Cc1ccc(C(=O)/C=C/c2ccc(O)c(O)c2)cc1 : 1.45
N#CC1=C(N)Oc2c(sc3c(Br)cccc23)C1c1ccc(Br)cc1 (stereo not given) : -0.34
O=P1(c2ccccc2)C(c2ccccc2)=CC=C1c1ccccc1 : 1.56

# batch size: 4; output log10 TGI per entry
1. O=S(=O)(c1cccc2c(Cl)cccc12)N1CCCNCC1
2. CCOC(=O)/C(=C\c1ccc(C#N)cc1)C(C)=O
3. O=C(O)NCC1CCCCC1 (tested in a mixture with another compound)
4. Cc1cc2nc(N3C(=O)/C(=C/c4ccccc4S)N=C3c3ccccc3)sc2cc1C

Result ::
1: 1.46; 2: 1.99; 3: 1.76; 4: 1.98

----------
tested on: 786-0 renal; experiment: NCI tumour cell line growth inhibition, 48 h
endpoint: GI50

// below: answered compounds
COC(=O)C1CCCN1C(=O)[C@@H]1CCCN1C(=O)[C@H](Cc1c[nH]c2ccccc12)NC(=S)Nc1cc(C(F)(F)F)cc(C(F)(F)F)c1 (stereo partly specified) : 2.52 µM
Oc1ccccc1CNCC12CC3CC(CC(C3)C1)C2 : 16.2 µM
COc1ccc(/C=C(\C#N)n2nnc3ccccc32)cc1 : 0.63 µM
COC(=O)C1=C(C(=O)OC)SC(=C(Cl)C(=S)Nc2ccccc2O)S1 : 0.686 µM
O=C(Nc1ccc2[nH]c(=S)sc2c1)Nc1ccccc1F : 51.6 µM

Below are 5 compounds. Give each one its GI50.
1. O=C1C=CC[C@H](/C=C/c2ccccc2)O1
2. Clc1ccc2nnnn2n1
3. NC1=C(c2nc(-c3ccccc3)cs2)C(c2ccc(Br)cc2)c2c(c3ccccc3oc2=O)O1 (stereo unspecified)
4. O=S(=O)(c1cccc2c(Cl)cccc12)N1CCCNCC1
5. COc1cc(Cl)cc(-c2nn(-c3cccc(NC(=O)Nc4cc(C(F)(F)F)cc(C(F)(F)F)c4)c3)cc2-c2ccncc2)c1

Result ::
6.28 µM
3.73 µM
75.6 µg/mL
11.1 µM
0.821 µM

The recorded GI50 for entry COc1cccc2c1C(=O)c1c(O)c3c(c(O)c1C2=O)C[C@@](O)(C(=O)CO)C[C@@H]3O[C@H]1C[C@H](N)[C@@H](O)[C@H](C)O1 equals 0.123 µM
